- Experimental Protocol: HL-60 cell growth and viability
- Type: cell-based, human
- Test Parameters: human, hl-60 cells, 8 nM PMA, 24 h; read-out: % Viability
Measured Parameter: viability at 24 h, 0.008 µM (%)
Answers are plain numbers, in %.

Consider the compound CCCCCCCCCCCCCC(=O)O[C@@H]1[C@@H](C)[C@@]2(O)[C@@H](C=C(CO)C[C@]3(O)C(=O)C(C)=C[C@@H]23)[C@@H]2C(C)(C)[C@]12OC(C)=O [PMA, Phorbol 12-myristate 13-acetate, reference compound] . State its measured viability at 24 h, 0.008 µM.
80

----------
- Tested on: protein kinase C
- Experimental Protocol: Triton X-100 mixed micellar assay for protein kinase C activity
- Assay type: biochemical, rat
- Test Parameters: mixed micellar assay
Measured Parameter: inhibition of protein kinase C (specificity)

molecule="CCCCCCCCCCCCCCC[C@H](O)[C@@H](N)CO (relative stereo)" reported_value=inhibitors
molecule="CCCCCCCCCCCCCCCC(=O)C(N)CO (stereo not shown)" reported_value=inhibitors
molecule="CCCCCCCCCCCCCCC[C@@H](O)[C@@H](N)CO (relative stereo) [Sphinganine, erythro-dihydrosphingosine]" reported_value=inhibitors
